Measured pEC50, listed per entry.
SYSTEM: human recombinant mGluR5 (Homo sapiens, UniProt P41594)
Construct: expressed in transfected cells; host or cells: HEK 293 cell line, cultured with tetracycline, hygromycin and geneticin; tetracycline is withdrawn 3-7 days before the assay
Sequence (P41594 21-1212): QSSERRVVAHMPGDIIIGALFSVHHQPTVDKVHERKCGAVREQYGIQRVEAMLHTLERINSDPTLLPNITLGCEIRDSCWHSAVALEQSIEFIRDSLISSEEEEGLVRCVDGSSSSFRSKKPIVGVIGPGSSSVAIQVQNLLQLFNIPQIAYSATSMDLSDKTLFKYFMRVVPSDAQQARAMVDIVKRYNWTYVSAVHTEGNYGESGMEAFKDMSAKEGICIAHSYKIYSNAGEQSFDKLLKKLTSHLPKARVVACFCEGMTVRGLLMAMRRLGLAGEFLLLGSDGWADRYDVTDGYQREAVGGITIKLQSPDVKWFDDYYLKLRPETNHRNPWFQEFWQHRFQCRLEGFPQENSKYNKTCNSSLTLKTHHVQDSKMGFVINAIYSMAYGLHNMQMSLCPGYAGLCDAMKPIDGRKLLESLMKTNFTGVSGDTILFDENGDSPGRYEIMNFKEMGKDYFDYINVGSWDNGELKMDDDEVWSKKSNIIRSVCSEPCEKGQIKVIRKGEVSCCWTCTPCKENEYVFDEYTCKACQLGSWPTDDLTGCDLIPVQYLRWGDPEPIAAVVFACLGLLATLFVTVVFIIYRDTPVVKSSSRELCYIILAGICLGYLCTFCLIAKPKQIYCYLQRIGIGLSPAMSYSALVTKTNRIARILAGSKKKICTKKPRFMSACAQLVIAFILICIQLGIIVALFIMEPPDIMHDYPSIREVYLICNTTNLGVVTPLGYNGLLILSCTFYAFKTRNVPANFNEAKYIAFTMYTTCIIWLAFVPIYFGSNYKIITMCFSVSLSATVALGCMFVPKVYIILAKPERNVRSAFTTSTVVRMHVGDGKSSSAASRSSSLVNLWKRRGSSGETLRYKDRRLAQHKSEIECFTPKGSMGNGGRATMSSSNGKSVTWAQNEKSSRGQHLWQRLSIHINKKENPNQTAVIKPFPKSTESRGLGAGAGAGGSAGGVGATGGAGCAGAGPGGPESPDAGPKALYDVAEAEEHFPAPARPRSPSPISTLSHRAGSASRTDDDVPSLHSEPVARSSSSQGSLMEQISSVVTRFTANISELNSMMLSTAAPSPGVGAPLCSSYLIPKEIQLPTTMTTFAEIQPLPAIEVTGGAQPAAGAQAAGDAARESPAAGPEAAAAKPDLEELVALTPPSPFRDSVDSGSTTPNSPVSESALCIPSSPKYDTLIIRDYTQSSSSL
EXPERIMENTAL PROTOCOL: positive modulation of mGluR5, calcium based FLIPR assay
Format: cell-based
TEST PARAMETERS: EC50 of the modulation; HEK 293 cell line expressing human recombinant mGluR5; peak height of Ca fluorescence signal after glutamate at approx. 5% basal stimulation; read-out: EC50
pEC50 here is simply -log10 of the concentration when that concentration is written in mol/L.

Worked examples, 3 compounds total:
>>> recorded_number("COC(=O)c1ccc2c(c1)CCN(C(=O)Cn1nc(-c3ccc(F)cc3)nc1-c1ccc(F)cc1)C2")
6.51
>>> recorded_number("CCc1nnc(N2CCN(C(=O)Cn3nc(-c4ccc(F)cc4)nc3-c3ccc(F)cc3)CC2)o1")
7.02
>>> recorded_number("Cc1cnc(C2=CCN(C(=O)Cn3nc(-c4ccc(F)cc4)nc3-c3ccc(F)cc3)CC2)o1")
7.31

Proceed to the following item.
Lab book: pEC50 of `Cc1cc(-c2nc(C(C)C)n(CC(=O)N3CC=C(c4ncccn4)CC3)n2)ccc1F` noted as 5.77
